Test target: T1, human soluble αvβ5 protein (extracellular domains of human αv and β5 integrin subunits) (human, UniProt P06756 31-992; P18084 24-719)
T1 construct: also called biotin-αvβ5; hsαvβ5
T1 sequence (P06756 31-992 limits assumed, chain 1 of 2): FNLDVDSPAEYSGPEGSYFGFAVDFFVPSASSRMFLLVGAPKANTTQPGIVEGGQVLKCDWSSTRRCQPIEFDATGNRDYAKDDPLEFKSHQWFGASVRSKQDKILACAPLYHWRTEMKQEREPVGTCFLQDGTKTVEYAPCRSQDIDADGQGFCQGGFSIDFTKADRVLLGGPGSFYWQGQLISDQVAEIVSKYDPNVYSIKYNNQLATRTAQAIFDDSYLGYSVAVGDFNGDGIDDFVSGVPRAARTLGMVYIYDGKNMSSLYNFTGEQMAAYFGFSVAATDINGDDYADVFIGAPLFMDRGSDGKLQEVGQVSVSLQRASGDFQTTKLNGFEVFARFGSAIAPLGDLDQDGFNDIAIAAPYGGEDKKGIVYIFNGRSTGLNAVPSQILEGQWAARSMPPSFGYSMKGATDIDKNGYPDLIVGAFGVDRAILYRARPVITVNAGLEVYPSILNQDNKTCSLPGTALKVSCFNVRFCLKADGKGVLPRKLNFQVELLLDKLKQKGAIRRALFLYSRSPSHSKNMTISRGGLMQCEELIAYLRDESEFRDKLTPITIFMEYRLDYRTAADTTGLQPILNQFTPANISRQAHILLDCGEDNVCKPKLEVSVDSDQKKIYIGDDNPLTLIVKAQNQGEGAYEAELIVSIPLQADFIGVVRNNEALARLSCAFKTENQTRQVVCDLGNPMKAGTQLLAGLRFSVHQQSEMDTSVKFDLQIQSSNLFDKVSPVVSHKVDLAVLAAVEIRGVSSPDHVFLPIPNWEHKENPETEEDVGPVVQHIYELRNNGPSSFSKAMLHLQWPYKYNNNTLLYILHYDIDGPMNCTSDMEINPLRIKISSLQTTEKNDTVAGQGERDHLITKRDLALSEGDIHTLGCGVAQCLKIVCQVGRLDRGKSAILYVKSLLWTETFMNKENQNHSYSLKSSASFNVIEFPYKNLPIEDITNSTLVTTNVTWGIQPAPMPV
T1 sequence (P18084 24-719 limits assumed, chain 2 of 2): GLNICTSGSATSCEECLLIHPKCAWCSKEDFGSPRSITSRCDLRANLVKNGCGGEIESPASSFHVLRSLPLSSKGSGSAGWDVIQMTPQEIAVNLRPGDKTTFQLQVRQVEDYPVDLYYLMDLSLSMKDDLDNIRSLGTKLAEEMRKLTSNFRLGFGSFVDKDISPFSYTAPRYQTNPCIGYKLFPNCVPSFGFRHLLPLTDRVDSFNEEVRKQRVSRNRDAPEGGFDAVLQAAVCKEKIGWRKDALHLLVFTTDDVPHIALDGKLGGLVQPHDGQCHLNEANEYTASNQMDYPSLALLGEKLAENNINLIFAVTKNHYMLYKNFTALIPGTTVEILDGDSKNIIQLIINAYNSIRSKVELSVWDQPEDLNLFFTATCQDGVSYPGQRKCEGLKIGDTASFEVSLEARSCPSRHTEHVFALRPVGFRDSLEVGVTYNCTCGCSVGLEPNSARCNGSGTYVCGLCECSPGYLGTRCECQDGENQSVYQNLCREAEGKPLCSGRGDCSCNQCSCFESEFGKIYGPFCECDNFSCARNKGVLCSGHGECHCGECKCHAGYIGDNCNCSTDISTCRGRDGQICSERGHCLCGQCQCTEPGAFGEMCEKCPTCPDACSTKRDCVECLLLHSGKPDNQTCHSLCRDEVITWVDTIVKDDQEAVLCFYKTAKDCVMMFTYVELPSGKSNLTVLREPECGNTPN
Protocol text: ELISA, biotin-αvβ5 on streptavidin plate, unpurified antibody
pEC50: −log10 of the molar value.
Measurement label: pEC50

* VH1/VL2 Agly-hIgG1(T299A) (antibody, V domains shown, also called H1/L2) VH: EVQVVESGGGLVKPGGSLRLSCAASGYTFTSYWMHWVRQAPGKGLEWVGAIYPGNSDTSYNQKFKGRFTISADTSKNTLYLQMNSLKTEDTAVYYCTTTTYGYDWFAYWGQGTLVTVSS VL: NIQMTQSPSSLSASVGDRVTMSCKSSQSVLYSSNQKNYLAWYQQKPGKSPKLLIYWASTRESGVPDRFTGSGSGTDFTLTISSLQPEDFATYYCHQYLSSLTFGQGTKLEIK | 8.64
* VH5/VL3 Agly-hIgG1(T299A) (antibody, V domains shown, also called H5/L3) VH: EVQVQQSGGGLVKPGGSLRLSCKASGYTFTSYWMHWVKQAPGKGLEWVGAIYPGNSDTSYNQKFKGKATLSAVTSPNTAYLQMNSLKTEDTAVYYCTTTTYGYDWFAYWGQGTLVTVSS VL: DIQMTQSPSSLTVSVGDRVTMSCKSSQSVLYSSNQKNYLAWYQQKPGKSPKLLIYWASTRESGVPDRFTGSGSGTDFTLTISSVQPEDFATYYCHQYLSSLTFGAGTKLEIK | 8.85
* VH0/VL2 Agly-hIgG1(T299A) (antibody, V domains shown, also called H0/L2) VH: EVQLVESGGGLVKPGGSLRLSCAASGYTFTSYWMHWVRQAPGKGLEWVGAIYPGNSDTSYNQKFKGRFTISRDDSKNTLYLQMNSLKTEDTAVYYCTTTTYGYDWFAYWGQGTLVTVSS VL: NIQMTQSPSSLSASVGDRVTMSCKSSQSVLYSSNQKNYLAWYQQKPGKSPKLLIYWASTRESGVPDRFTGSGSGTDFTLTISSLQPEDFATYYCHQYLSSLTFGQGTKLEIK | 9.00
* VH5/VL1 Agly-hIgG1(T299A) (antibody, V domains shown, also called H5/L1) VH: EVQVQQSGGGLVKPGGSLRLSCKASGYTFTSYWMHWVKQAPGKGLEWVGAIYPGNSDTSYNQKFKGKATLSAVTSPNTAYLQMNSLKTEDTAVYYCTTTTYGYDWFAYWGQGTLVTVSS VL: DIQMTQSPSSLSASVGDRVTMTCKSSQSVLYSSNQKNYLAWYQQKPGKAPKLLIYWASTRESGVPDRFSGSGSGTDFTLTISSLQPEDFATYYCHQYLSSLTFGQGTKLEIK | 9.52
